Below, each entry is listed with its recorded EC50, CreLuc reporter, 100% hP.
Target: T1, human GIP receptor (human, UniProt P48546 22-466)
T1 sequence (looked up): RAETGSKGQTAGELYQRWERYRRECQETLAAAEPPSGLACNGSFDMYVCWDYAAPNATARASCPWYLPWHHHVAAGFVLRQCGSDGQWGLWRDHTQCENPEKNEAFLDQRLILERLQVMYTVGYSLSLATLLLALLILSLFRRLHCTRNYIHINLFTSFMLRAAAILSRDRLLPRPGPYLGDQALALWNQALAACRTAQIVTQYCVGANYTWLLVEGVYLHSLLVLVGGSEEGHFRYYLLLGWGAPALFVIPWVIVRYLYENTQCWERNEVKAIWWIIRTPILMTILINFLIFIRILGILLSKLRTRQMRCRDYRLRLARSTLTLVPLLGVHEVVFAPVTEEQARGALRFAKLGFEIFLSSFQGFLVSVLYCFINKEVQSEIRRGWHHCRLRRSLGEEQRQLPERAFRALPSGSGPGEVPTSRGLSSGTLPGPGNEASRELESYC
Assay: cell-based or functional assay
*1 amine or outer side, *2 acyl side, *3 side chain or, on linkers, in order; H or OH if unused. Where no end group is shown, it is not given here. Side-chain parts run from the residue outwards. [ ]: non-standard residue; d: D form. The star is where a group is joined. C20 diacid = O=C(O)CCCCCCCCCCCCCCCCCCC(=O)*; C18 diacid = O=C(O)CCCCCCCCCCCCCCCCC(=O)*; γGlu = O=C(O)[C@H](CCC(=O)[*:2])N[*:1]; εLys = N[C@@H](CCCCN[*:1])C(=O)[*:2]; Aib = CC(C)(N)C(=O)O
Form entry: value (nM) — number only.

>>> quantitative_result("Y[Aib]EGTFTSDLSI[Aib]LEKQAQ[Aib]AFVRHLINK([γGlu-εLys-γGlu-γGlu-γGlu-γGlu-γGlu-C20 diacid])[Aib]TRQRY-NH2 [Compound 60]")
8

Ask: May I ask what EC50, CreLuc reporter, 100% hP has been recorded for YXEGTFTSDYSIXLEKQAQXEFVRHLINKLTRQRY (Aib at 2, 13, 20; Lys29 epsilon-amino acylated with C18DA-gGlu-gGlu-gGlu-gGlu-gGlu-AHX; C-terminal amide) [Compound 45] ?
Reply: 19.6

Ask: Same question, Y[Aib]EGTFTSDYSI[Aib]LEKQAQ[Aib]AFVRHLINK([εLys-εLys-γGlu-γGlu-γGlu-γGlu-γGlu-γGlu-C18 diacid])[Aib]TRQRY-NH2 [Compound 11] this time
Reply: 8

Taken from patent US20250382344A1.
